PROCEDURE TEXT: amyloid nucleation score (Sup35N fusion, yeast selection) (log enrichment); library NNK1; higher = more nucleation; inactive = no reads after selection;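 also: zero at mode of non-aggregating sequences after 7 days selection at 30°C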
Recorded amyloid nucleation score by entry

SUBSTANCE	amyloid nucleation score
FSLNQCVKGHVFGATICTLR	1.86
SMGRLP	-1.05
DLNRSALSRDDGNSVILKCG	0.653
YMKWTNDVNDTLDILFCVYL	3.84
DRRIEYVVDLGSSCGMTTHV	0.049
RLDYFLCITYMIDQDRWRIT	-0.254
GFFLSPLVRIISMTEMKVMK	0.571
TQSTLGSMTIASDYCTTE	1.42
LRSTLPADRRGLICFSHI	0.528
GYGAKWVLVVS	1.25
WCTATGVSRFTMGIKTCHCL	0.738
ASLKCEKGVCGVFGWSGVGH	-0.687
LACYDQPATSRSTAGSCPVP	1.55
HIYSRYQERRLVFVWYACND	0.134
PYVSHCGIHFFGWFSWSRAS	0.583
